- System: conscious male ICR mice
- testMethodNotes: Mouse acetic acid writhing test (WT)
- Format: in vivo
- particulars: submaximal effective dose i.v., 60 min pretreatment; percentage of the activity found at -5 min
Where a SMILES comes first, the peptide text is derived from it. [ ]: non-standard residue; d: D form. The star is where a group is joined. dPhe(3,4-Cl2) = N[C@H](Cc1ccc(Cl)c(Cl)c1)C(=O)O; d2Thi = N[C@H](Cc1cccs1)C(=O)O; NH(4-picolyl) = c1cc(CN*)ccn1; dNle = CCCC[C@@H](N)C(=O)O; Piperidide = C1CCN(*)CC1; NHCH2CH2OH = OCCN*; X1 = C1CN(*)CCS1; NHBu = CCCCN*
Please use class 1 for % Antinociception 1 hr under 70% and class 0 for everything else, ties included.

Enquiry: Would you kindly verify if % Antinociception 1 hr of CCCC[C@@H](NC(=O)[C@@H](Cc1ccccc1)NC(=O)[C@H](N)Cc1ccccc1)C(=O)N[C@H](CCCNC(=N)N)C(=O)N1CCCCC1 [Peptide 12, H-D-Phe-D-Phe-D-Nle-D-Arg-Pip] (H-[dF][dF][dNle][dR]-Piperidide) is strictly less than 70%?
Return: class 1

Enquiry: Follow-up entry: CCCC[C@@H](NC(=O)[C@@H](Cc1ccccc1)NC(=O)[C@H](N)Cc1ccccc1)C(=O)N[C@H](CCCNC(=N)N)C(=O)N1CCSCC1 [Peptide 10, H-D-Phe-D-Phe-D-Nle-D-Arg-Tmo] (H-[dF][dF][dNle][dR]-X1)
Return: class 0

Enquiry: Follow-up entry: CCCC[C@@H](NC(=O)[C@@H](Cc1ccccc1)NC(=O)[C@H](N)Cc1ccccc1)C(=O)N[C@H](CCCNC(=N)N)C(=O)NCCO [Peptide 9, H-D-Phe-D-Phe-D-Nle-D-Arg-NHhEt] (H-[dF][dF][dNle][dR]-NHCH2CH2OH)
Return: class 0

Enquiry: Follow-up entry: CCCCNC(=O)[C@@H](CCCNC(=N)N)NC(=O)[C@@H](CCCC)NC(=O)[C@@H](Cc1ccccc1)NC(=O)[C@H](N)Cc1ccccc1 [Peptide 4, H-D-Phe-D-Phe-D-Nle-D-Arg-NHBu] (H-[dF][dF][dNle][dR]-NHBu)
Return: class 1

Enquiry: Follow-up entry: CC(C)C[C@@H](NC(=O)[C@@H](Cc1ccc(Cl)c(Cl)c1)NC(=O)[C@H](N)Cc1cccs1)C(=O)N[C@H](CCCNC(=N)N)C(=O)NCc1ccncc1 [Peptide 60] (H-[d2Thi][dPhe(3,4-Cl2)][dL][dR]-{NH(4-picolyl)})
Return: class 0

* * *

Overview of recorded μ/κ Ratio (binding affinity for KOR versus MOR) for various compounds
- experimentalSystem: cloned human kappa (hKOR) receptor (Homo sapiens)
- Construct: expressed in transfected cells; host or cells: HN9.10 (mouse hippocampal neuroblastoma), stably transfected
- Sequence (P41145 whole entry): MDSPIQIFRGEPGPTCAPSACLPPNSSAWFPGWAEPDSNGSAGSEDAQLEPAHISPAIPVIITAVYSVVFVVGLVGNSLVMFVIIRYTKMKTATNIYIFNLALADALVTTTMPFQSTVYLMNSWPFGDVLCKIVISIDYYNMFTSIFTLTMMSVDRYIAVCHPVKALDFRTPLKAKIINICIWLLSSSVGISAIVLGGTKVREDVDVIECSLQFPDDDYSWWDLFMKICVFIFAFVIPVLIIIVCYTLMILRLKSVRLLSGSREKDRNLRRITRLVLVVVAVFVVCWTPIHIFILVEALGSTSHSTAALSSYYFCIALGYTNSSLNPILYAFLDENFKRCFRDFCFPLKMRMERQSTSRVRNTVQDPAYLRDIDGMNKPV
- testMethodNotes: biochemical
- Assay type: binding
- particulars: Ki MOR / Ki KOR
Where a SMILES comes first, the peptide text is derived from it. [ ]: non-standard residue; d: D form. The star is where a group is joined. dPhe(3,4-Cl2) = N[C@H](Cc1ccc(Cl)c(Cl)c1)C(=O)O; d2Thi = N[C@H](Cc1cccs1)C(=O)O; NH(4-picolyl) = c1cc(CN*)ccn1; N(CH2CH2)2NH = C1CN(*)CCN1; dNle = CCCC[C@@H](N)C(=O)O; X1 = C1CN(*)CCS1

Example entries begin here.
{"compound": "CCCC[C@@H](NC(=O)[C@@H](Cc1ccccc1)NC(=O)[C@H](N)Cc1ccccc1)C(=O)N[C@H](Cc1ccc(CNC(=N)N)cc1)C(=O)N1CCOCC1 [Peptide 58, H-D-Phe-D-Phe-D-Nle-D-Gmf-Mor]", "reportedValue": "6,500"}
{"compound": "CCCC[C@@H](NC(=O)[C@@H](Cc1ccccc1)NC(=O)[C@H](N)Cc1ccccc1)C(=O)N[C@H](CCCNC(=N)N)C(=O)N1CCSCC1 [Peptide 10, H-D-Phe-D-Phe-D-Nle-D-Arg-Tmo] (H-[dF][dF][dNle][dR]-X1)", "reportedValue": "25,000"}
{"compound": "CC(C)C[C@@H](NC(=O)[C@@H](Cc1ccc(Cl)c(Cl)c1)NC(=O)[C@H](N)Cc1cccs1)C(=O)N[C@H](CCCNC(=N)N)C(=O)NCc1ccncc1 [Peptide 60] (H-[d2Thi][dPhe(3,4-Cl2)][dL][dR]-{NH(4-picolyl)})", "reportedValue": "1,900"}

Enquiry: Consider the compound shown here: CCCC[C@@H](NC(=O)[C@@H](Cc1ccccc1)NC(=O)[C@H](N)Cc1ccccc1)C(=O)N[C@H](CCCNC(=N)N)C(=O)N1CCNCC1 [Peptide 15, H-D-Phe-D-Phe-D-Nle-D-Arg-Ppz] (H-[dF][dF][dNle][dR]-{N(CH2CH2)2NH}) What is its recorded μ/κ Ratio (binding affinity for KOR versus MOR)?
Return: 57,000
